tested on: Acetolactate synthase, chloroplastic (Arabidopsis thaliana)
test: Inhibition of Arabidopsis thaliana AHAS at 100 mg/L colorimetric assay
# label = Criterion met if inhibition >= 60% else Criterion not met

Is reported inhibition greater than or equal to 60% here: O=C(N/N=C1\C(=O)N(Cc2ccc(Cl)cc2Cl)c2ccccc21)c1ccccc1
Criterion not met

Reported inhibition at or above 60%? Cc1ccc2c(c1)C(=O)C(=O)N2
Criterion not met

Assess whether reported inhibition for O=C(N/N=C1\C(=O)N(Cc2cccc(F)c2)c2ccccc21)c1ccccc1 sits at 60% or higher.
Criterion met

Decide: is the reported value of inhibition for Cc1ccccc1CN1C(=O)/C(=N\NC(=O)c2ccccc2)c2ccccc21 equal to or greater than 60%?
Criterion not met

State whether the measured inhibition reaches 60%, counting equality as reaching it, for Cc1nc(C)c(C(=O)N/N=C2\C(=O)Nc3ccccc32)s1
Criterion not met

Entry CN1C(=O)C(=O)c2cc([N+](=O)[O-])ccc21 : is its inhibition no less than 60%?
Criterion not met

Could you please find out whether Cc1ccc2c(c1)C(=O)C(=O)N2C has inhibition that meets 60% or exceeds it?
Criterion met

Determine whether this compound has inhibition no lower than 60%: O=C1Nc2ccc(S(=O)(=O)O)cc2C1=O
Criterion not met

Is the recorded value of inhibition equal to or greater than 60% for this compound? N#Cc1ccc(CN2C(=O)/C(=N\NC(=O)c3ccccc3)c3ccccc32)cc1
Criterion not met

Answer whether inhibition of O=C1Nc2ccc(Cl)cc2C1=O is greater than or equal to 60%.
Criterion not met

Is inhibition at least 60%? Consider O=C1Nc2c(I)cccc2/C1=N/NC(=O)c1cccc(F)c1
Criterion met

Is inhibition for Cc1cc(C)n(CC(=O)N/N=C2\C(=O)Nc3ccccc32)n1 at or above 60%?
Criterion not met

Threshold query (inhibition >= 60%) on O=C1Nc2c(Cl)cccc2C1=O
Criterion met

Can O=C(N/N=C1\C(=O)N(Cc2ccc(F)cc2)c2ccccc21)c1ccccc1 be said to have inhibition at or above 60%?
Criterion met

Hello, I need to know if O=C1Nc2ccc(F)cc2C1=O has measured inhibition not below 60%. Thanks!
Criterion met

Form field: inhibition at least 60%? Entry: Cc1ccnc(NC(=O)NS(=O)(=O)c2ccccc2C(=O)O)n1
Criterion met

Assess whether reported inhibition for O=C1Nc2ccccc2/C1=N/O sits at 60% or higher.
Criterion not met

Could you tell me if the measured inhibition of O=C1Nc2c(Br)cccc2/C1=N/NC(=O)c1ccccc1F reaches 60% or more?
Criterion met

hey, is inhibition for this one >= 60%? Cc1cc(Cl)cc2c1NC(=O)C2=O
Criterion met

Hi team, for O=C1Nc2c(I)cccc2/C1=N/NC(=O)c1ccccc1O , is the recorded inhibition at or above 60%?
Criterion met

Reported inhibition at or above 60%? CN1C(=O)C(=O)c2cccc(Cl)c21
Criterion met

I'd appreciate it if you could say whether CN1C(=O)C(=O)c2ccccc21 has inhibition at least equal to 60%.
Criterion not met

Answer whether inhibition of O=C1Nc2ccccc2C1=O is greater than or equal to 60%.
Criterion met

Is inhibition at least 60%? Consider O=C1Nc2ccccc2/C1=N/Nc1ncccc1Cl
Criterion met

Given the entry O=C1Nc2ccc(I)cc2C1=O , answer whether its inhibition meets or surpasses 60%.
Criterion met
